Assay: Leishmania major promastigote growth inhibition, primary screen (AID 1063);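 note: promastigotes grown with compound for 44 hours at 28 °C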
Conditions: Leishmania major promastigotes, resazurin fluorescence viability; at 10 µM; hits give high values
The whole screen tested about 200,000 compounds, of which about 18,000 (9%) were called active. The entries come from a sample that favours actives as a whole.
parameter: inhibition (%)
Write down the numeric answer in % and omit the unit.

[
  {
    "compound": "CCOC(=O)C1CCCN(C(=O)/C=C/c2ccc(OC)cc2)C1 (stereo unspecified)",
    "endpoint-unit": "%",
    "inhibition": 7.27
  },
  {
    "compound": "COc1ccc(C[C@H]2CN3C(=NC[C@H]3C)N2CCNC(=O)CCC2CCCCC2)cc1",
    "endpoint-unit": "%",
    "inhibition": 31.8
  },
  {
    "compound": "COc1ccc(/C=C/C(=O)N2CCCC2)cc1OC",
    "endpoint-unit": "%",
    "inhibition": -1.79
  }
]

Summary for this compound, CC(C)(C)NC(=O)NC(=O)COC(=O)Cc1c(F)cccc1Cl : inhibition is 2.42

// field: inhibition; key: COc1ccc(CN(C)C(C)C(=O)NC2CCCc3ccccc32)cc1 (stereo unspecified) ; value = 10

Record summary for O=C(C1CCCO1)N(c1ccc(F)cc1)C1C=CS(=O)(=O)C1 (stereo unspecified) : reported inhibition = -5.34

The reported value for COc1ccc(C/C(N)=N/OC(=O)c2ccco2)cc1OC in terms of inhibition is -5.88

The compound COc1ccc(C(=O)O/N=C(\N)Cc2ccc(Cl)cc2Cl)cc1OC showed inhibition equal to 71.9

The value of inhibition measured for the compound COc1ccc(C(=O)ON=C2c3ccccc3-c3ccccc32)cc1OC turned out to be -6.29

Briefly, inhibition measured for CCCC(=O)Nc1nnc(-c2ccccc2)o1 : -6.09

// COC(c1ccccc1)c1nnc(CCC(=O)N2CCN(CCOc3ccccc3)CC2)o1 (stereo unspecified) : inhibition value = -4.38

====

Recorded inhibition, one value per entry.
Assay: Leishmania major promastigote growth inhibition, primary screen (AID 1063);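 note: promastigotes grown with compound for 44 hours at 28 °C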
Details: Leishmania major promastigotes, resazurin fluorescence viability; at 10 µM; hits give high values
About 18,000 (9%) of roughly 200,000 compounds were called active. The full list was thinned out, with actives kept by preference.
Respond with the bare value in %.

Field: example entries. Status: answers known.
[
  {
    "molecule": "CCOC(=O)c1cnc2ccc(F)cc2c1Nc1ccc2c(c1)OCCO2",
    "recorded-result": 85.4
  },
  {
    "molecule": "Cc1cc(NC(=O)CSc2nccn2-c2ccc([N+](=O)[O-])cc2)no1",
    "recorded-result": -2.13
  },
  {
    "molecule": "Cc1cc(C(=O)N/N=C/c2ccccc2[N+](=O)[O-])c(C)o1",
    "recorded-result": -4.59
  }
]

Memo: Cc1ccc(-c2nn(-c3cccc(F)c3)cc2CNCCc2ccncc2)o1 , reported inhibition: 56.8

inhibition reading for CCCCN(CC)CCCNC(=O)c1ccc(CSc2nc3ccncc3[nH]2)cc1 : -5.43

Kindly note the recorded inhibition for CSc1ccccc1NC(=O)Cc1ccc(Br)cc1 , which is 53.5

The molecule O=C(Nc1ccccc1Cl)c1ccc2nsnc2c1 showed inhibition equal to -3.57

// C/C(N)=C(/C#N)C(=O)COC(=O)C1CCN(C(=O)c2ccc(Cl)cc2)CC1 : inhibition value = -2.84

inhibition recorded for this molecule, COC(=O)CCNc1ccc2c(c1)OCCO2 , is -0.44

Just so you know, measured inhibition for O=C(CN1CCN(Cc2ccc(F)cc2Cl)C1=O)NCc1cccs1 came out at -13

// Cc1cc(Cl)ccc1OCCCC(=O)NCc1ccccn1 : inhibition value = 5.49

Value of inhibition reported for the molecule Cc1ccc2nc(-c3ccncc3)cc(C(=O)Nc3ccc4c(c3)OCCO4)c2c1 is 5.91

====

Test: Leishmania major promastigote growth inhibition, primary screen (AID 1063);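 note: promastigotes grown with compound for 44 hours at 28 °C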
Conditions: Leishmania major promastigotes, resazurin fluorescence viability; at 10 µM; hits give high values
About 18,000 (9%) of roughly 200,000 compounds were called active. Many of the other results were omitted from the sample, so actives are more common in it than they were.
inhibition reference

# annotated cases, reported inhibition shown
[
  {
    "compound": "CS(=O)(=O)N(CC(=O)NC1CCCC1)Cc1ccc(F)cc1",
    "recorded-result": "-5.9% (inactive)"
  },
  {
    "compound": "CCOC(=O)/C(=C\\c1ccc([N+](=O)[O-])cc1)C(=O)c1cc(C(C)=O)c(Nc2ccccc2)s1",
    "recorded-result": "101% (active)"
  },
  {
    "compound": "Cn1c(=O)n(Cc2ccco2)c(=N)c2c3c(sc21)CCCC3",
    "recorded-result": "13.8% (inactive)"
  },
  {
    "compound": "O=c1c([N+](=O)[O-])cccn1Cc1ccc(F)cc1Cl",
    "recorded-result": "13.1% (inactive)"
  },
  {
    "compound": "COc1cc(/C=C/C(=O)OCC(=O)N2CCOCC2)ccc1OCC#N",
    "recorded-result": "-11.6% (inactive)"
  },
  {
    "compound": "CN(Cc1ccccc1)c1nc2c(c(=O)[nH]c(=O)n2C)n1CCSc1nc2ccccc2[nH]1",
    "recorded-result": "95% (active)"
  },
  {
    "compound": "Cc1ccc(S(=O)(=O)CC(=O)Nc2c(C)n(C)n(-c3ccccc3)c2=O)cc1",
    "recorded-result": "2.54% (inactive)"
  },
  {
    "compound": "C=CCO/N=C/C1=C(O)C(C(=O)OC)C(C)(C)CC1=O (stereo not given)",
    "recorded-result": "-2.09% (inactive)"
  }
]

Record CCOC(=O)c1ccc[n+](CC(=O)Nc2ccccc2OC(F)F)c1 , field inhibition: 1.13% (inactive)

inhibition reading for N#Cc1ccc(C(c2nnnn2CCc2ccccc2)N2CCCCCC2)cc1 (stereo not given) : 16.3% (inactive)

====

Assay: Leishmania major promastigote growth inhibition, primary screen (AID 1063);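 note: promastigotes grown with compound for 44 hours at 28 °C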
Settings: Leishmania major promastigotes, resazurin fluorescence viability; at 10 µM; hits give high values
Hit rate of the full screen: of about 200,000 compounds, about 18,000 (9%) were called active. What follows is part of a selection rich in actives, with near analogues and random picks from the rest.
// values below are reported inhibition
Numeric only. Scale: %

Examples with their reported inhibition follow.
[
  {
    "compound": "Cc1cc(C)c(C#N)c(N2CCC(C(N)=O)CC2)n1",
    "endpoint-unit": "%",
    "inhibition": -0.97
  },
  {
    "compound": "COc1ccc(CCNC(=O)COC(=O)Cc2cc(OC)c(OC)c(OC)c2)cc1",
    "endpoint-unit": "%",
    "inhibition": -3.11
  }
]

Consider COCCSc1nnc(NC(=O)c2cc(OC)c(OC)cc2[N+](=O)[O-])s1 . Its measured inhibition is -4.07

For O=C(Cn1nnc2ccccc2c1=O)NCc1ccc(Cl)cc1 the compound record lists inhibition as -4.83

inhibition in this record for Cc1cccc(-c2nc3ccccc3c(=O)n2NC(=O)Cc2ccc(Cl)cc2)c1 : 53

====

Assay: Leishmania major promastigote growth inhibition, primary screen (AID 1063);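 note: promastigotes grown with compound for 44 hours at 28 °C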
Details: Leishmania major promastigotes, resazurin fluorescence viability; at 10 µM; hits give high values
About 18,000 (9%) of roughly 200,000 compounds were called active. Only a selection was taken, and actives are over-represented in it overall. Where a SMILES comes first, the peptide text is derived from it. The star is where a group is joined. Bz = O=C(c1ccccc1)*
// values below are reported inhibition
Please state the figure in %; there is no need to write the unit.

See these solved cases before continuing.
[
  {
    "compound": "COc1ccc(NC(=S)NCCNC(C)=O)cc1",
    "endpoint-unit": "%",
    "inhibition": -3.38
  },
  {
    "compound": "CCC(=O)c1ccc(OCC(O)Cn2nc(C)c(C(C)=O)c2C)cc1 (configuration not stated)",
    "endpoint-unit": "%",
    "inhibition": -1.66
  },
  {
    "compound": "O=C(NC(Cc1ccccc1)C(=O)N1CCCC1C(=O)O)c1ccccc1 (stereo not drawn) (Bz-Phe-Pro-OH; configuration not given here)",
    "endpoint-unit": "%",
    "inhibition": -8.5
  },
  {
    "compound": "C=CCn1c(=N)n(CC(O)COc2ccc(OC)cc2)c2ccccc21 (configuration not stated)",
    "endpoint-unit": "%",
    "inhibition": 34.9
  },
  {
    "compound": "Cc1ccccc1NC(=O)NC1(C(=O)N2CCCC2)CCCCC1",
    "endpoint-unit": "%",
    "inhibition": -6.94
  }
]

Sure, the documented inhibition for CN(C)C=NC(=O)c1cccn1-c1ncc(C(F)(F)F)cc1Cl is -3.59

Sure, the documented inhibition for COc1cc(OC)cc(-c2nc3ccccc3c(=O)n2NC(=O)c2cccnc2Cl)c1 is 46.3

Record Cc1ccc(NC(=O)OCc2cncs2)cc1 . Reported inhibition: -5.83

Reported inhibition ( CN(C)CCCNC(=O)/C=C/c1ccc(OCc2c(F)cccc2Cl)cc1 ) = 89.1

The value of inhibition measured for the compound O=C(O)c1ccc(NC(=O)C2CCCCC2)cc1 turned out to be -6.65

The recorded inhibition for Cc1cccc(NC(=O)c2nnn(-c3cccc(C(F)(F)F)c3)c2N)c1 is 3.89

The compound listed as CC(C)n1c(C(O)c2ccccc2)nc2ccccc21 (configuration not stated) has a reported inhibition of 5.37

Lab note: COc1ccc(NC(=S)Nc2ccccc2Cl)cn1 gave inhibition of 6.52

Record Cc1nc2nc(CSc3nc4ccccc4s3)cc(=O)n2[nH]1 , field inhibition: 1.29

Origin of measurements: PubChem BioAssay AID1063
